# Tested target: human σ2 receptor (TMEM97) (Homo sapiens)
# Protocol text: biochemical
# Assay type: Expi293 membranes
# Condition: read-out: % of control remaining
Please respond with 1 when measured remaining activity at 1 µM is strictly beneath 90%, and with 0 in all other cases.

Enquiry: Regarding CCC(C)(C)N1CCN(c2cc(C(F)F)ncn2)CC1 , kindly confirm whether its remaining activity at 1 µM is beneath 90%.
Return: 1

Enquiry: Here's an entry: CN(C[C@]1(O)CCN(Cc2ccccc2)C1)C(=O)c1ccc(F)c2ccccc12 . Is its remaining activity at 1 µM below 90%?
Return: 1

Enquiry: Just wondering, is remaining activity at 1 µM of CCN(CC)[C@H]1CCN(C(=O)NCCCc2cccc(Cl)c2)C1 below 90%?
Return: 1

Enquiry: Lab log: compare recorded remaining activity at 1 µM with 90%; is it strictly lower for CC1CCC(CNC(=O)C(=O)NC2CCN([C@@H]3CCC[C@@H]3O)CC2)CC1 (stereo partly drawn) ?
Return: 1

Enquiry: Given the entry CC(C)Sc1c(Cl)cccc1NC(=O)C(=O)N(C)C[C@H]1CCCN1C , would its reported remaining activity at 1 µM be below 90%?
Return: 1

Enquiry: Criterion: remaining activity at 1 µM strictly below 90%. Is it met by Cn1nnc2c(N3C[C@H]4CC[C@@H](C3)N4C(=O)c3cc[nH]n3)ncnc21 ?
Return: 0

Enquiry: For this compound, is remaining activity at 1 µM lower than 90%? O[C@@H](CN1CC[C@@H](c2ccccc2F)C1)CC1(O)CCCCC1
Return: 1

Enquiry: Regarding CC(C)CCO[C@@H]1CCN(C[C@H]2CC3(CCCCC3)CO2)C1 , kindly confirm whether its remaining activity at 1 µM is beneath 90%.
Return: 1

Enquiry: Does this compound meet the criterion remaining activity at 1 µM < 90%? COc1ccc2cc(CN[C@](C)(CO)C(C)C)ccc2c1
Return: 1

Enquiry: # strict comparison: is reported remaining activity at 1 µM < 90%? input = O[C@@H](CN1CCN(c2ccc(-c3nn[nH]n3)cc2F)CC1)C1CC1
Return: 0

Enquiry: Field: below-cutoff. Rule: recorded remaining activity at 1 µM strictly less than 90%. Subject: CC1CCN(C2CCC(NC(=O)C(=O)Nc3ccc(C(C)C)cc3)CC2)CC1 (stereo not drawn)
Return: 1

Enquiry: Is 90% strictly greater than the compound's reported remaining activity at 1 µM? compound: Cc1ccccc1[C@H](OC[C@H](O)CN1Cc2ccccc2C1)c1ccccc1
Return: 1

Enquiry: # TODO verify remaining activity at 1 µM < 90% strictly for this compound: COc1ccc(C(=O)N[C@@H]2CN(C(=O)C3(C)CCC3)C[C@@H]2O)nn1
Return: 0

Enquiry: Item C[C@@H]1CCN(CC(=O)N[C@H]2C[C@H](NC(=O)c3cnnc(O)c3)C2)C1 : remaining activity at 1 µM beneath 90%, strictly?
Return: 0

Enquiry: Does this compound meet the criterion remaining activity at 1 µM < 90%? CN(C)Cc1ccc(-c2cscc2CCO)cc1F
Return: 0

---

# Tested target: UniProtKB Q5BJF2
# Protocol text: biochemical
# Assay type: Expi293 membranes
# Condition: read-out: % of control remaining
Measurement kind: remaining activity at 1 µM

Field remaining activity at 1 µM (UniProtKB Q5BJF2), entry CCC(CC)n1ccc(CN2CC=C(c3ccc(O)cc3)CC2)n1 : 38.7%

// compound CN1CC[C@H]2CCN(C(=O)C(=O)Nc3cnc4c(c3)COCC4)[C@@H]2C1 , assay UniProtKB Q5BJF2, remaining activity at 1 µM value: 114%

Observed remaining activity at 1 µM on UniProtKB Q5BJF2, entry CN(Cc1ccccc1)C(=O)CNC(=O)C(=O)N[C@H]1CCCNC1 , equals 82.5%

Let me check: O=C(c1cccnn1)N1CCC(O)(CNc2cncc(Cl)n2)CC1 , system UniProtKB Q5BJF2, measured remaining activity at 1 µM is 104%

remaining activity at 1 µM of COc1ccc([C@@H](C)N[C@H](CO)C2CCC2)cc1Br , assay on UniProtKB Q5BJF2, is 42.3%

Tested on UniProtKB Q5BJF2: COc1ccc2ccccc2c1-c1cc(CN2CCN(C[C@@H](C)O)C[C@H]2C)on1 . Observed remaining activity at 1 µM: 89%

UniProtKB Q5BJF2 assay, compound N/C(=N\Cc1cccc2c1OCCCO2)NC1CCCC1 , recorded remaining activity at 1 µM = 11.1%

---

# Tested target: human σ2 receptor (TMEM97) (Homo sapiens, UniProt Q5BJF2)
# Sequence (Q5BJF2 whole entry): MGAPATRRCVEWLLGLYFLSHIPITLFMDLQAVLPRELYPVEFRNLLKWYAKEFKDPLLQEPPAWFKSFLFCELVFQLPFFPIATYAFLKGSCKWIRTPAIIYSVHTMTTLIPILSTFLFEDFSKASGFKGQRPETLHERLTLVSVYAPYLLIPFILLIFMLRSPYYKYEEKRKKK
# Protocol text: biochemical
# Assay type: Expi293 membranes
# Condition: read-out: % of control remaining
Give remaining activity at 1 µM for every item shown.
Respond with the bare value in %.

Form field remaining activity at 1 µM, entry CCN1CCCC[C@H]1C(=O)NC[C@@H](O)CNC(=O)c1cnccn1 : 80.5

Summary for this compound, FC(F)(F)c1ccc(-c2nc(CN3CC[C@H](N4CCCC4)C3)cs2)cc1 : remaining activity at 1 µM is 29.7

// remaining activity at 1 µM value for C[C@H]1[C@H](N2CCCC2)CCN1Cc1cn2cc(Br)ccc2n1 : 69.7

Kindly note the recorded remaining activity at 1 µM for O[C@]1(CN[C@@H]2CC[C@@H](Cc3ccccc3)C2)CCSC1 , which is 30.5

Record NC(=O)[C@@H]1CCC[C@@H](C(=O)NCC2(O)CN(C(=O)C3CCC3)C2)C1 . Reported remaining activity at 1 µM: 110

compound O=C([C@@H]1CCCN(CC(F)F)C1)N1CC[C@]2(CCN(CCO)C2)C1 , remaining activity at 1 µM observed: 110

The recorded remaining activity at 1 µM for entry Cc1cc(C(=O)CN2CC[C@@H]([C@H]3CCCO3)C2)c(C)n1C1CC1 equals 24.1

compound CC(=O)N[C@@H]1CCN(S(=O)(=O)c2cnn([C@@H]3CCOC3)c2)C1 , remaining activity at 1 µM observed: 118

Lab note: O=C1[C@@H](N2CC[C@@H](C3OCCO3)C2)CCN1c1cccc(Br)c1 gave remaining activity at 1 µM of 75.9

get_value(item= COc1ccc(Oc2ccc([N+](=O)[O-])cc2C(=O)N(C)C[C@H]2CCCN2C)cc1 , readout=remaining activity at 1 µM) returns 96.4

Briefly, remaining activity at 1 µM measured for C[C@H]1CCN(CC#Cc2cccc(Cl)c2)[C@H]1CO : 103

---

Kindly supply the reported Ki values for the records listed here.
# Tested target: human σ2 receptor (TMEM97) (Homo sapiens)
# Protocol text: biochemical
# Type: Expi293 membranes
Lab book: enter the figure in nM, no units written.

Sample Cc1ccc(CCC2CCN(C(=O)CN3C[C@@H]4CC[C@@H](O)[C@H]4C3)CC2)cc1 ; Ki observed: 10

The compound listed as c1ccc(N2CCC(NC[C@@H]3C[C@H]4CCC[C@@H]4O3)CC2)cc1 has a reported Ki of 14.7

The compound identified as O[C@@H](COCc1ccccc1Cl)CN1CC[C@H](Cc2ccc(F)cc2)C1 registered its Ki at 13.7

---

Assignment: determine reported remaining activity at 1 µM for the given molecules.
# Tested target: human σ2 receptor (TMEM97) (Homo sapiens)
# Protocol text: biochemical
# Format: Expi293 membranes
# Condition: read-out: % of control remaining
Numeric answer only, unit % assumed.

remaining activity at 1 µM reported for this molecule Cc1nc(O)[nH]c1C(=O)NC[C@H]1CCN([C@H](C)C(=O)NC2CC2)C1 : 115

# molecule CC(C)C1CN(C[C@@H](O)COC(c2ccccc2)c2ccccc2)C1 ; its remaining activity at 1 µM = 17.3

Lookup result for CCc1nnsc1C(=O)N[C@H]1[C@@H]2CN(CC3CCCCCC3)C[C@@H]21 ; measured remaining activity at 1 µM: 12.9

For C[C@H](NC[C@H](CO)Cc1c(F)cccc1Cl)c1ccco1 the molecule record lists remaining activity at 1 µM as 22.5

---

Kindly state remaining activity at 1 µM for each of the entries shown.
# Tested target: human σ2 receptor (TMEM97) (Homo sapiens, UniProt Q5BJF2)
# Protocol text: biochemical
# Assay type: Expi293 membranes
# Condition: read-out: % of control remaining
Supply the numeric figure in %, leaving out any unit text.

Noted remaining activity at 1 µM for CCN1CC[C@@H](N2CCC(NC(=O)c3cncnc3C)CC2)C1=O [ZINC001002391793] , tested on human σ2 receptor (TMEM97) (Homo sapiens, UniProt Q5BJF2): 90.1

Record CN1C(=O)[C@H]2CN(C(=O)C(=O)NC3CCC(F)(F)CC3)C[C@H]2C1=O [ZINC001261948364] ; system human σ2 receptor (TMEM97) (Homo sapiens, UniProt Q5BJF2); remaining activity at 1 µM = 90.8

Entry O=C1CN(CC(=O)N[C@H](CNc2cc(F)ncn2)C2CC2)CCN1 [ZINC001109958062] , tested on human σ2 receptor (TMEM97) (Homo sapiens, UniProt Q5BJF2), has a reported remaining activity at 1 µM of 90.2
